studyTarget: F2RL3 (Homo sapiens)
Construct: purchased Promega (in-house HiBiT-GPCR construct library, NanoBRET)
Sequence (Q96RI0 18-385): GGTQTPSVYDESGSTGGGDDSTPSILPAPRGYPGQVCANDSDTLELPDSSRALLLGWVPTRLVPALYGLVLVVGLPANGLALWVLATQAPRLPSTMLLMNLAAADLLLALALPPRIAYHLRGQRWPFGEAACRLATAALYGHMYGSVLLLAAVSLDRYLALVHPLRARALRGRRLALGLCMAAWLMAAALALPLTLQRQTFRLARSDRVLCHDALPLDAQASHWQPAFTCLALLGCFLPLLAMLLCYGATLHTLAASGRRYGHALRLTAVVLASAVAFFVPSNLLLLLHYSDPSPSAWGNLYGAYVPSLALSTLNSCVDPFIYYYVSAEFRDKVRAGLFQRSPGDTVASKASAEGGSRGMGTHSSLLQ
testProtocol: NanoBRET screen HiBiT-F2RL3 in HEK293
Type: binding
conditionsUsed: F2RL3; tracer 1μM
readoutKind: NanoBRET Fold Response
// return just the number, without any unit appended

{"compound": "CC(C)N(CC[C@H](c1ccccc1)c1cc(CCNC(=O)c2ccc(CNC(=O)CCc3ccc4n3[B-](F)(F)[N+]3=C(c5ccc[nH]5)C=CC3=C4)cc2)ccc1O)C(C)C [Tolterodine-BZ-NB590]", "readoutValue": 1.06}
{"compound": "COc1ccccc1N1CCN(CCCCN2C(=O)c3ccc(CNC(=O)CCOCCNC(=O)c4ccc(CNC(=O)CCc5ccc6n5[B-](F)(F)[N+]5=C(c7ccc[nH]7)C=CC5=C6)cc4)cc3C2=O)CC1 [NAN-190-3-NB590]", "readoutValue": 0.99}

Exam item: GET NanoBRET Fold Response | system: F2RL3 (Homo sapiens) | item: CCCn1c(=O)c2[nH]c(-c3ccc(OCC(=O)NCCNC(=O)CCOCCNC(=O)c4ccc(CNC(=O)CCc5ccc6n5[B-](F)(F)[N+]5=C(c7ccc[nH]7)C=CC5=C6)cc4)cc3)nc2n(CCC)c1=O [XAC-3-NB590]
Marked response: 1.05

* * *

studyTarget: GRM8 (Homo sapiens)
Construct: purchased Promega (in-house HiBiT-GPCR construct library, NanoBRET)
Sequence (O00222 34-908): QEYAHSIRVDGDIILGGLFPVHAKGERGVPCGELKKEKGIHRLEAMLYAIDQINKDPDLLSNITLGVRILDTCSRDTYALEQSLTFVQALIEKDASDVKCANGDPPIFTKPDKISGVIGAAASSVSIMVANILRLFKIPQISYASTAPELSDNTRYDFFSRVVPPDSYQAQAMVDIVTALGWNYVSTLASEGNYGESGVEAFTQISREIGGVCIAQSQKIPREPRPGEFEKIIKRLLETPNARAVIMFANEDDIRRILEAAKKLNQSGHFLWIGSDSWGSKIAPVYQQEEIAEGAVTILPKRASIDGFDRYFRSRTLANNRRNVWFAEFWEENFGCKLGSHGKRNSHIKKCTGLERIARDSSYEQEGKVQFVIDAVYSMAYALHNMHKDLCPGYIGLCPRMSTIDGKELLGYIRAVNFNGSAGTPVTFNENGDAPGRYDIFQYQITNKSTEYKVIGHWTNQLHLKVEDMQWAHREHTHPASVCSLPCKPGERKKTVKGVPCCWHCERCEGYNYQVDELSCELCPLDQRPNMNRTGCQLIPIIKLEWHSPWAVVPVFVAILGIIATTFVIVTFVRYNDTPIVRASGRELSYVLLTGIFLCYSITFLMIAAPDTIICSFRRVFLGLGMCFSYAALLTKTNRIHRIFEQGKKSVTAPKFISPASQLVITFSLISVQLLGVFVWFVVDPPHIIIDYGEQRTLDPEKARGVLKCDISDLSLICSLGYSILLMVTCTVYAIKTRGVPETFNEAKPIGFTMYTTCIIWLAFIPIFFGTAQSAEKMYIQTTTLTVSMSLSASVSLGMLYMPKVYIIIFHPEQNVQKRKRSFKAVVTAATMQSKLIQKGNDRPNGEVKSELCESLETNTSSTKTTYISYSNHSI
testProtocol: NanoBRET screen HiBiT-GRM8 in HEK293
Assay type: binding
conditionsUsed: GRM8; tracer 0.1μM
readoutKind: NanoBRET Fold Response
I only need the number, thanks.

Use these answered entries as a reference point.
{"itemSmiles": "N#CN=C(NCCCOc1cccc(CN2CCCCC2)c1)NCCNC(=O)CCOCCOCCOCCOCCNC(=O)CCc1ccc2n1[B-](F)(F)[N+]1=C(c3ccc[nH]3)C=CC1=C2", "readoutKind": "NanoBRET Fold Response", "readoutValue": 1.01}
{"itemSmiles": "O=C(CCOCCOCCOCCOCCNC(=O)CCc1ccc2n1[B-](F)(F)[N+]1=C(c3ccc[nH]3)C=CC1=C2)NCCCN1CCN(C2=Nc3ccccc3Oc3ccc(Cl)cc32)CC1", "readoutKind": "NanoBRET Fold Response", "readoutValue": 1.01}
{"itemSmiles": "CC(C)N(CC[C@H](c1ccccc1)c1cc(CCNC(=O)CCOCCOCCOCCOCCNC(=O)CCc2ccc3n2[B-](F)(F)[N+]2=C(c4ccc[nH]4)C=CC2=C3)ccc1O)C(C)C", "readoutKind": "NanoBRET Fold Response", "readoutValue": 1.00}

Let's switch to this compound now.
Exam item: // output NanoBRET Fold Response; input Cc1cc2c(s1)Nc1ccccc1N=C2N1CCN(CCCNC(=O)CCOCCOCCOCCOCCNC(=O)CCc2ccc3n2[B-](F)(F)[N+]2=C(c4ccc[nH]4)C=CC2=C3)CC1 ; system GRM8 (Homo sapiens)
Marked response: 0.97

* * *

Listing of recorded NanoBRET Fold Response by entry.
studyTarget: GABBR2 (Homo sapiens)
Construct: purchased Promega (in-house HiBiT-GPCR construct library, NanoBRET)
Sequence (O75899 42-941): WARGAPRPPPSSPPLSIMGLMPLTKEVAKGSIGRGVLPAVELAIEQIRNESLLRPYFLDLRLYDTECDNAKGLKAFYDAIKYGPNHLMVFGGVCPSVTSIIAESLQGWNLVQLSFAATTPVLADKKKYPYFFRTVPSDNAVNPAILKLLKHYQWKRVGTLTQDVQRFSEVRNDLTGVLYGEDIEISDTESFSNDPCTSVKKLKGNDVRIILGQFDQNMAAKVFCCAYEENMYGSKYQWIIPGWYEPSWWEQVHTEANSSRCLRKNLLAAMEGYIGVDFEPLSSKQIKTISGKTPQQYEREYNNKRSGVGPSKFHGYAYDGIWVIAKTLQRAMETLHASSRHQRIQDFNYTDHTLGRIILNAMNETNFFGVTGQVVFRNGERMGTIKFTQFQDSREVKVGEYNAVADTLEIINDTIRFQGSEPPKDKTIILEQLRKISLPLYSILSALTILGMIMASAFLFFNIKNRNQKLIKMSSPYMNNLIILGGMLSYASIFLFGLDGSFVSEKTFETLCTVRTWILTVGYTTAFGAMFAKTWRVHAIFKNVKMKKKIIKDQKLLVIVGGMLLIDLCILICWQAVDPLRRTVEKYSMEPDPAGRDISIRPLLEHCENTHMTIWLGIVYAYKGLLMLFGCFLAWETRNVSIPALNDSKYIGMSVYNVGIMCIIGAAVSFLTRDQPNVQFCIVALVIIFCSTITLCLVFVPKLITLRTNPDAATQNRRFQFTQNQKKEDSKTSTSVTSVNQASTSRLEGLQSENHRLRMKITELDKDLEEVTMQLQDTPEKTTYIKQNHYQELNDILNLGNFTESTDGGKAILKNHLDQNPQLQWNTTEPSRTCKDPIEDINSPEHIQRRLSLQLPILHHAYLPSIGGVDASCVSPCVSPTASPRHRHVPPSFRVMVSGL
testProtocol: NanoBRET screen HiBiT-GABBR2 in HEK293
Type: binding
conditionsUsed: GABBR2; tracer 1μM

{"compound": "CCCn1c(=O)c2[nH]c(-c3ccc(OCC(=O)NCCNC(=O)CCOCCNC(=O)c4ccc(CNC(=O)CCc5ccc6n5[B-](F)(F)[N+]5=C(c7ccc[nH]7)C=CC5=C6)cc4)cc3)nc2n(CCC)c1=O [XAC-3-NB590]", "NanoBRET Fold Response": 1.11}
{"compound": "COc1ccccc1N1CCN(CCCCN2C(=O)c3ccc(CNC(=O)CCOCCNC(=O)c4ccc(CNC(=O)CCc5ccc6n5[B-](F)(F)[N+]5=C(c7ccc[nH]7)C=CC5=C6)cc4)cc3C2=O)CC1 [NAN-190-3-NB590]", "NanoBRET Fold Response": 1.10}

Exam item: Provide one value: measured NanoBRET Fold Response of O=C(CCc1ccc2n1[B-](F)(F)[N+]1=C(c3ccc[nH]3)C=CC1=C2)NCc1ccc(C(=O)NCCOCCC(=O)N[C@@H]2CC[C@@]3(O)[C@H]4Cc5ccc(O)c6c5[C@@]3(CCN4CC3CC3)[C@H]2O6)cc1 [Naltrexone-3-NB590]
Marked response: 1.11
